Hey, just so you know, these numbers are from the RNAGym collection of RNA variant scans (doi:10.7554/elife.80360).

Form field: self-cleavage (one value per entry).
B1: HDV Ribozyme (parent)
chain: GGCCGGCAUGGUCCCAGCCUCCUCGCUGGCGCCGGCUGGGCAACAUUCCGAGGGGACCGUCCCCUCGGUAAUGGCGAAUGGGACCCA

variants of: B1; assay: self-cleavage, relative activity (ratio to wild type); higher = more cleavage; co-transcriptional
Give the figure only, with no unit attached.

These solved cases illustrate the format of a correct answer.
1) C21G G53C
0.0978
2) G2A U27A
0.0997
3) C7A G67C
0.302

### Prompt Looking for the measured self-cleavage of A78G G80U , can you help?
### Response 0.12

### Prompt Looking for the measured self-cleavage of U20A C33A , can you help?
### Response 0

### Prompt Looking for the measured self-cleavage of C13U A42U , can you help?
### Response 0.125

### Prompt Looking for the measured self-cleavage of G40U G50U , can you help?
### Response 1.01

### Prompt Looking for the measured self-cleavage of G17A C75U , can you help?
### Response 0.138

### Prompt Looking for the measured self-cleavage of G25U G50A , can you help?
### Response 0.151

### Prompt Looking for the measured self-cleavage of C19U A42C , can you help?
### Response 0.104
